src = patent US20250368666A1

molecular target: FGFR3 (V555M) (Homo sapiens, UniProt P22607, V555M); construct: made in house; host or cells: E. coli (BL21-derived), T7 phage; test: Kinase binding assay (kinase-tagged T7 phage, affinity beads, qPCR), Kd; conditions: V555M mutant; read-out: FGFR3 (V555M) (Kd nM)
Sequence (P22607 23-806 V555M): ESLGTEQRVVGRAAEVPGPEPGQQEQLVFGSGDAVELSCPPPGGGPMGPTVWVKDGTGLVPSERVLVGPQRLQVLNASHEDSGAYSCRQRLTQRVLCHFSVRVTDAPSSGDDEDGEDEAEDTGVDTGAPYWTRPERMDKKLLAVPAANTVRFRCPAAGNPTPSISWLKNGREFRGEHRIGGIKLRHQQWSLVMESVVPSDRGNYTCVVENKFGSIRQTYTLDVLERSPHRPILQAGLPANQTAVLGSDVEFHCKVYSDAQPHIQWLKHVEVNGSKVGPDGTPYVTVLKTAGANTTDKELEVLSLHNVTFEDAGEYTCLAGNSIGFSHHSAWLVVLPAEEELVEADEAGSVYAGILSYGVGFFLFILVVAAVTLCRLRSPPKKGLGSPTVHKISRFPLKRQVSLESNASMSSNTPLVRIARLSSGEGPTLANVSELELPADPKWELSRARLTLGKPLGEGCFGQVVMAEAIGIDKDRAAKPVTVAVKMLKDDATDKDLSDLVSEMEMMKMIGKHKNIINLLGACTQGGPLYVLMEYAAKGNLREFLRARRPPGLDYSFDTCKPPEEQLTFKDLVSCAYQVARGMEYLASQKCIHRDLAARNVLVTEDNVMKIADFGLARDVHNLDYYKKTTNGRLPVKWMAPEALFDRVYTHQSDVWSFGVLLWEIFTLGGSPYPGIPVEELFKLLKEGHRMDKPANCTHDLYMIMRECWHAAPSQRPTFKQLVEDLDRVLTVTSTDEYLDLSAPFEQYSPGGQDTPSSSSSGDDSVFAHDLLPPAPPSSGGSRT
resultType: Kd

[
  {
    "compoundStructureString": "CC[C@@H](C)NC1(C)CN(c2ncc(-c3n[nH]c4cc(OC)c(O[C@H](C)c5c(Cl)cncc5Cl)cc34)cc2C#N)C1",
    "experimentalSystem": "FGFR3 (V555M) (Homo sapiens, UniProt P22607, V555M)",
    "readoutValue": "1 to 50 nM"
  },
  {
    "compoundStructureString": "C[C@@H](Oc1ccc2[nH]nc(-c3cnc(N4CC(C)(N[C@H]5CCOC5)C4)c(C#N)c3)c2c1)c1c(Cl)cncc1Cl",
    "experimentalSystem": "FGFR3 (V555M) (Homo sapiens, UniProt P22607, V555M)",
    "readoutValue": "1 to 50 nM"
  },
  {
    "compoundStructureString": "C[C@@H](Oc1ccc2[nH]nc(-c3cnc(N4CC(C)(CN5CCOCC5)C4)c(C#N)c3)c2c1)c1c(Cl)cncc1Cl",
    "experimentalSystem": "FGFR3 (V555M) (Homo sapiens, UniProt P22607, V555M)",
    "readoutValue": "1 to 50 nM"
  }
]

====

Listing of recorded Kd by entry.
molecular target: FGFR2 (Homo sapiens, UniProt P21802); construct: made in house; host or cells: E. coli (BL21-derived), T7 phage; assay: Kinase binding assay (kinase-tagged T7 phage, affinity beads, qPCR), Kd; details: read-out: FGFR2 (Kd nM)
Sequence (P21802 22-821): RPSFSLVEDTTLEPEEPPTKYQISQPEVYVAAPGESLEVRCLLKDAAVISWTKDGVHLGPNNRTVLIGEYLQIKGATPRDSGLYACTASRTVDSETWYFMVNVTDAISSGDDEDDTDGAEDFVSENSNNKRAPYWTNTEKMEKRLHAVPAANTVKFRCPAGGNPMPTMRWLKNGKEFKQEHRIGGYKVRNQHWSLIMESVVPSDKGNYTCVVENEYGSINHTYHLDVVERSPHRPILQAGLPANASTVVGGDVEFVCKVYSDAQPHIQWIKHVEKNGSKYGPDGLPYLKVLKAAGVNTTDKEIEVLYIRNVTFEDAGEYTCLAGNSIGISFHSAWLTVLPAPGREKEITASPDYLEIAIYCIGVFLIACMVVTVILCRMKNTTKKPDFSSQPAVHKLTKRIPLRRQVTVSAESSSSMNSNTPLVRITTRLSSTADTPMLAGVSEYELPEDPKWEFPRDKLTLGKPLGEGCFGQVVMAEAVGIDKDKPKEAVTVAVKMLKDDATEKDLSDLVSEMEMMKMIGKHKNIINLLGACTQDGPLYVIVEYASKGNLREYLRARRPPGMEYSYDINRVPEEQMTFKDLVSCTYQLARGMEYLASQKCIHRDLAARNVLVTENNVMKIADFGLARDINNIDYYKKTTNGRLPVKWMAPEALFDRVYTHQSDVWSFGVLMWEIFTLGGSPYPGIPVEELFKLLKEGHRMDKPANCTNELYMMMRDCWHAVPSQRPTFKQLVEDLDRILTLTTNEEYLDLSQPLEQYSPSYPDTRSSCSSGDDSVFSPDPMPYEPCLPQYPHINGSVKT
resultType: Kd

[
  {
    "compoundStructureString": "C[C@@H]1CN(C2(C)CN(c3ccc(-c4n[nH]c5ccc(O[C@H](C)c6c(Cl)cncc6Cl)cc45)cn3)C2)CCO1",
    "readoutValue": "1 to 50 nM"
  },
  {
    "compoundStructureString": "C[C@@H](Oc1ccc2[nH]nc(-c3cnc(N4CC(C)(NCC(C)(C)O)C4)c(C#N)c3)c2c1)c1c(Cl)cncc1Cl",
    "readoutValue": "1 to 50 nM"
  },
  {
    "compoundStructureString": "C[C@@H](O)CNC1(C)CN(c2ccc(-c3n[nH]c4ccc(O[C@H](C)c5c(Cl)cncc5Cl)cc34)cn2)C1",
    "readoutValue": "1 to 50 nM"
  },
  {
    "compoundStructureString": "C[C@@H](Oc1ccc2[nH]nc(-c3cnc(N4CC(C)(N5CCOCC5)C4)c(C#N)c3)c2c1F)c1c(Cl)cncc1Cl",
    "readoutValue": "> 1000 nM"
  },
  {
    "compoundStructureString": "COc1cc2[nH]nc(-c3cnc(N4CC(C)(CNC(C)C)C4)nc3)c2cc1O[C@H](C)c1c(Cl)cncc1Cl",
    "readoutValue": "1 to 50 nM"
  },
  {
    "compoundStructureString": "CC(C)NC1(C)CN(c2ncc(-c3n[nH]c4ccc(O[C@H](C)c5c(Cl)cncc5Cl)cc34)cc2F)C1",
    "readoutValue": "1 to 50 nM"
  },
  {
    "compoundStructureString": "COc1cc2[nH]nc(-c3cnc(N4CC(CC#N)(NC(C)C)C4)c(C#N)c3)c2cc1O[C@H](C)c1c(Cl)cncc1Cl",
    "readoutValue": "1 to 50 nM"
  },
  {
    "compoundStructureString": "C[C@@H](Oc1ccc2[nH]nc(-c3cnc(N4CC(C)(NC(=O)CN(C)C)C4)c(C#N)c3)c2c1)c1c(Cl)cncc1Cl",
    "readoutValue": "50 to 300 nM"
  },
  {
    "compoundStructureString": "COc1cc2[nH]nc(-c3cnc(N4CC(N)(CC(C)C)C4)c(C#N)c3)c2cc1O[C@H](C)c1c(Cl)cncc1Cl",
    "readoutValue": "1 to 50 nM"
  },
  {
    "compoundStructureString": "C[C@@H](Oc1ccc2[nH]nc(-c3cnc(N4CC(C)(NCC(C)(C)O)C4)c(F)c3)c2c1)c1c(Cl)cncc1Cl",
    "readoutValue": "1 to 50 nM"
  },
  {
    "compoundStructureString": "COc1cc2[nH]nc(-c3cnc(N4CC(C)(NC(C)C)C4)c(C#N)c3)c2cc1O[C@H](C)c1c(Cl)cncc1Cl",
    "readoutValue": "1 to 50 nM"
  },
  {
    "compoundStructureString": "CNC1(C)CN(c2ncc(-c3n[nH]c4ccc(O[C@@H](C)c5c(Cl)cncc5Cl)cc34)cc2F)C1",
    "readoutValue": "300 to 1000 nM"
  },
  {
    "compoundStructureString": "COc1cc2[nH]nc(-c3cnc(N4CC(C)(NC[C@@H](C)O)C4)c(F)c3)c2cc1O[C@H](C)c1c(Cl)cncc1Cl",
    "readoutValue": "1 to 50 nM"
  },
  {
    "compoundStructureString": "CC[C@H](C)NC1(C)CN(c2ncc(-c3n[nH]c4ccc(O[C@H](C)c5c(Cl)cncc5Cl)cc34)cc2F)C1",
    "readoutValue": "1 to 50 nM"
  }
]

====

molecular target: FGFR3 (V555M) (Homo sapiens, UniProt P22607, V555M); construct: made in house; host or cells: E. coli (BL21-derived), T7 phage; test: Kinase binding assay (kinase-tagged T7 phage, affinity beads, qPCR), Kd
resultType: Kd

[
  {
    "compound": "COP(=O)(CC1(C)CN(c2ncc(-c3n[nH]c4ccc(O[C@H](C)c5c(Cl)cncc5Cl)cc34)cc2F)C1)OC [Example 215]",
    "experimentalSystem": "FGFR3 (V555M) (Homo sapiens, UniProt P22607, V555M)",
    "readoutValue": "1 to 50 nM"
  }
]

====

target: FGFR2 (Homo sapiens); construct: made in house; host or cells: E. coli (BL21-derived), T7 phage; test: Kinase binding assay (kinase-tagged T7 phage, affinity beads, qPCR), Kd; conditions: read-out: FGFR2 (Kd nM)

[
  {
    "compoundStructureString": "C[C@@H](Oc1ccc2[nH]nc(-c3cnc(N4CC(C)(N[C@@H]5CCOC5)C4)c(C#N)c3)c2c1)c1c(Cl)cncc1Cl",
    "Kd": "1 to 50 nM"
  },
  {
    "compoundStructureString": "C[C@@H](Oc1cc2c(-c3cnc(N4CC5(CC5)C4)c(C#N)c3)n[nH]c2cc1F)c1c(Cl)cncc1Cl",
    "Kd": "> 1000 nM"
  },
  {
    "compoundStructureString": "C[C@@H](Oc1ccc2[nH]nc(-c3cnc(N4CC(C)(NC5CS(=O)(=O)C5)C4)c(C#N)c3)c2c1)c1c(Cl)cncc1Cl",
    "Kd": "50 to 300 nM"
  },
  {
    "compoundStructureString": "C=CCNC1(C)CN(c2ncc(-c3n[nH]c4cc(OC)c(O[C@H](C)c5c(Cl)cncc5Cl)cc34)cc2C#N)C1",
    "Kd": "1 to 50 nM"
  },
  {
    "compoundStructureString": "CCN(CC)C1(C)CN(c2ncc(-c3n[nH]c4ccc(O[C@H](C)c5c(Cl)cncc5Cl)cc34)cc2C#N)C1",
    "Kd": "50 to 300 nM"
  },
  {
    "compoundStructureString": "COc1cc2[nH]nc(-c3cnc(N4CC(C)(NCC(C)C)C4)c(C#N)c3)c2cc1O[C@H](C)c1c(Cl)cnc(C)c1Cl",
    "Kd": "50 to 300 nM"
  },
  {
    "compoundStructureString": "Cc1ncc(Cl)c([C@@H](C)Oc2ccc3[nH]nc(-c4ccc(N5CC(C)(NC6CCC6)C5)nc4)c3c2)c1Cl",
    "Kd": "1 to 50 nM"
  }
]

====

molecular target: FGFR1 (Homo sapiens); construct: made in house; host or cells: E. coli (BL21-derived), T7 phage; experiment: Kinase binding assay (kinase-tagged T7 phage, affinity beads, qPCR), Kd; conditions: read-out: FGFR1 (Kd nM)
Sequence (P11362 22-822): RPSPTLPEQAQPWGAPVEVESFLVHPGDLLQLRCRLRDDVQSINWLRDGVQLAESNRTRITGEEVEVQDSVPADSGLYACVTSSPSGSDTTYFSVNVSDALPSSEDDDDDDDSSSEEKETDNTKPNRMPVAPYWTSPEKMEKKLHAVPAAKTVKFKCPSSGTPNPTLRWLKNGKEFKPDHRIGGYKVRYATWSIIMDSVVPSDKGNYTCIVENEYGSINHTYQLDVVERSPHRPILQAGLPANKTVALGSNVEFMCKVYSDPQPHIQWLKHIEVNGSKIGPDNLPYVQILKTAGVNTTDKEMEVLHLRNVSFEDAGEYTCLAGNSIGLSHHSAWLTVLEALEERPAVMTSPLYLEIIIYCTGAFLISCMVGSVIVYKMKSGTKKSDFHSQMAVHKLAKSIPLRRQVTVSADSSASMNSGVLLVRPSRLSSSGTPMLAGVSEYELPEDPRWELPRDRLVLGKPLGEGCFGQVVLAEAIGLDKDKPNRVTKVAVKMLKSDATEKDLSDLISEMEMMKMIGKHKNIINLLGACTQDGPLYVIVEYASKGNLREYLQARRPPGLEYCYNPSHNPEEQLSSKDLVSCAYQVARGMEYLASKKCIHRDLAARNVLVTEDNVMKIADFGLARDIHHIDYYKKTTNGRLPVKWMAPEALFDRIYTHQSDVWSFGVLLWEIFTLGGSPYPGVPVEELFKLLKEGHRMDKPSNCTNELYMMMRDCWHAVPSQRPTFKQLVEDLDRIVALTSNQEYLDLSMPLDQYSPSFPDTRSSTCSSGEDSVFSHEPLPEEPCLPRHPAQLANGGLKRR

[
  {
    "compoundStructureString": "C[C@@H](Oc1ccc2[nH]nc(-c3cnc(N4CC(C)(CP(C)(C)=O)C4)c(C#N)c3)c2c1)c1c(Cl)cncc1Cl",
    "experimentalSystem": "FGFR1 (Homo sapiens)",
    "Kd": "50 to 300 nM"
  },
  {
    "compoundStructureString": "C[C@@H](Oc1ccc2[nH]nc(-c3ccc(N4CC(C)(N5CCOCC5)C4)nc3)c2c1)c1c(Cl)cncc1Cl",
    "experimentalSystem": "FGFR1 (Homo sapiens)",
    "Kd": "1 to 50 nM"
  },
  {
    "compoundStructureString": "C[C@@H](Oc1ccc2[nH]nc(-c3ccc(N4CC(C)(N5CCP(C)(=O)CC5)C4)nc3)c2c1)c1c(Cl)cncc1Cl",
    "experimentalSystem": "FGFR1 (Homo sapiens)",
    "Kd": "1 to 50 nM"
  },
  {
    "compoundStructureString": "CCCNC1(C)CN(c2ccc(-c3n[nH]c4ccc(O[C@H](C)c5c(Cl)cncc5Cl)cc34)cn2)C1",
    "experimentalSystem": "FGFR1 (Homo sapiens)",
    "Kd": "1 to 50 nM"
  }
]
